- System: HCT-15 colon
- testSummary: NCI-60 one-dose screen, 48 h (100 = growth as untreated, 0 = no growth, -100 = all killed)
- particulars: 10 µM unless noted
Compounds without any hit were thinned out: in the full panel of roughly 83,000, 20% have a hit.
observedProperty: growth (%)
One number for each entry, in %.

Solved cases below.
{"columns": ["compound", "growth / %"],
 "data": [
  ["Clc1ccc(CNc2c3ccccc3nc3ccccc23)cc1", 23.3],
  ["Nc1ncnc2c1N=C(c1ccc3c(c1)OCO3)CC(c1ccc([N+](=O)[O-])cc1)N2 (stereo not drawn)", 77],
  ["O=C(O)CNC1=C(Cl)C(=O)c2ccccc2C1=O", 100],
  ["CN(C)CCNc1nc2c3cc(Cl)ccc3nn2c2ccccc12", 41.2],
  ["CC1=C(CCC(C)N(C)Cc2ccc(OCCCN3CCCC3)cc2)C(C)(C)CCC1 (stereo not drawn)", -14]
]}

List reported growth for each of these compounds:
1. COC(=O)c1c2c(c(C)[n+]([O-])c1C)C(=O)C=C(NCc1ccc(OC)cc1)C2=O
2. O=S(=O)(NCCNc1cc(-c2c(-c3cccc(O)c3)nc3sccn23)ccn1)c1ccc(C(F)(F)F)cc1
3. OCc1cccc(-c2ccc3ncc(-c4nc(NC5CC5)ncc4F)n3c2)c1
4. Cc1nc(-c2ccccc2)cc2c(O)c(C(=O)NN)[nH]c(=O)c12

-43.9
25.2
1.06
107

These measurements were taken from PubChem BioAssay (NCI).
